Give measured 100% Inhibition of CLC formation (Conc uM) for each item. Keep answers brief.
target.desc: T1, TEV-cleaved wild-type recombinant human galectin-10 (soluble, in Fab complexes, or as recombinant galectin-10 … (human, UniProt Q05315 1-142))
T1 sequence: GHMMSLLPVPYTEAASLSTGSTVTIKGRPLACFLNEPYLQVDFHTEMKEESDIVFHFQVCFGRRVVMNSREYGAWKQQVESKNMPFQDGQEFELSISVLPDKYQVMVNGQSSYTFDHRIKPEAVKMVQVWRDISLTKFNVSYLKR
assay.overview: cell-based or functional assay
// units = µM; emit number, no label

Q: For the binder 1C09 mouse IgG1 (antibody, V domains shown, VH on mouse IgG1 heavy chain constant domains (CH1-CH2-CH3), VL on mouse lambda light chain constant domain; also called 1C09 mIgG1) VH: QVQLVESGPGLVKPSQTLSLTCTVSGGSITTNSYYWSWIRQPPGKGLEWMGAIAYSGSTYYSPSLKSRTSISRDTSKNQFTLHLSSVTPEDTAVYYCARRPNWYRALDAWGQGTLVTVSS VL: NFMLTQPSAVSVSLGQTARITCQGANLGRYYGIWYQQKPGQAPVQVIYGDSNRPSGIPERFSGSSSGGTATLTISGAQAEDEADYYCQSYESSTSPVFGGGTHLTVL , give its measured 100% Inhibition of CLC formation (Conc uM) value.
Ans: 0.82

Q: For the binder 6F05 scFv-human Fc (Fc fusion, about 100 kDa on SDS-PAGE; also called 6F5; 6F05 ScFv-hFc; not shown: CH2-CH3 constant domains of human IgG1 (vector pUPEX50)) scFv: QLQLVESGGGLVQPGGSLRLSCAASGFTFSSYAMSWVRQAPGKGLEWVSAINSGGGSTSYADSVKGRFTISRDNAKNTLYLQMNSLKPEDTAVYYCATPGDRLWYYRYDYWGQGTQVTVSSGGGGSGGGGSGGGGSQAGLTQPPSVSGTLGKAVTISCAGTSSDIGYGNYVSWYQQLPGTAPKLLIYKVSRRASGVPDRFSGSKSGNTASLSISGLQSEDEADYYCASYRYRNNVVFGGGTHLTVL , give its measured 100% Inhibition of CLC formation (Conc uM) value.
Ans: 1

Q: For the binder 4E08 mouse IgG1 (antibody, V domains shown, VH on mouse IgG1 heavy chain constant domains (CH1-CH2-CH3), VL on mouse lambda light chain constant domain; also called 4E8; 4E08 mIgG1) VH: QVQRQESGPGLVKPSQTLSLTCTVSGGSITTSYYAWSWIRQPPGKGLEWMGVIASDGSTYYSPSLKSRTSISRDTSKNQFSLQLSSVTPEDTAVYYCALYIRGSSWSGWSAYDYWGQGTQVTVSS VL: QPVLNQPSAVSVSLGQTARITCQGGNFGYYYGSWYQQKPGQAPVLVIYKDSERPSGIPERFSGSSSGGTATLTISRAQAEDEADYYCQSADSSDNPVFGGGTHLTVL , give its measured 100% Inhibition of CLC formation (Conc uM) value.
Ans: 1.11

Q: For the binder 1D11 mouse IgG1 (antibody, V domains shown, VH on mouse IgG1 heavy chain constant domains (CH1-CH2-CH3), VL on mouse lambda light chain constant domain; also called 1D011; 1D11 mIgG1) VH: QVQLVESGGGLVQPGGSLRLSCAASGFTFDDYAMSWVRQAPGKGLEWVSGISWNGGSTYYAESMKGRFTISRDNAKNTLYLQMNSLKSEDTAVYYCAKDRNLGYRLGYPYDYWGQGTQVTVSS VL: QSVLTQPPSVSGSPGETVTISCAGTSSDVGYGNYVSWYQQLPGMAPRLLIYEVNKRASGITDRFSGSKSGNTASLTISGLQSEDEGDYYCASYRSSNNAVFGGGTHLTVL , give its measured 100% Inhibition of CLC formation (Conc uM) value.
Ans: 0.34
